System Name: human mGluR2 (Homo sapiens)
Construct: expressed in transfected cells; host or cells: HEK293 clonal line
Protocol Text: mGluR2 cAMP assay
Assay type: cell-based
Run Conditions: clonally expressed human mGluR2 in HEK293; 1 μM forskolin, 1 μM LY-341495, 30 min; CISBIO cAMP kit; read-out: EC50 (nM), activity in mGluR2 cAMP assay
Below, each of the compounds is paired with its reported EC50 value.

[
  {
    "Compound": "Clc1cccc(COc2ccn3c(CC4CC4)nnc3c2Cl)c1",
    "EC50": "18 nM"
  },
  {
    "Compound": "FC(F)(F)Oc1ccccc1[C@H]1C[C@@H]1COc1ccn2c(CC3CC3)nnc2c1C(F)(F)F (racemic) [Example 38]",
    "EC50": "1.4 nM"
  },
  {
    "Compound": "FC(F)(F)c1c(OCC2(c3ccc(Cl)cc3)CC2)ccn2c(CC3CC3)nnc12",
    "EC50": "13 nM"
  }
]

In: Give its EC50 value. Item: "FC(F)(F)c1c(OC[C@@H]2C[C@H]2c2ccc(Cl)cc2)ccn2c(CC3CC3)nnc12"
Out: 4 nM

###

System Name: human mGluR2 (Homo sapiens, UniProt Q14416)
Construct: expressed in transfected cells; host or cells: HEK293 clonal line
Sequence (Q14416 19-872): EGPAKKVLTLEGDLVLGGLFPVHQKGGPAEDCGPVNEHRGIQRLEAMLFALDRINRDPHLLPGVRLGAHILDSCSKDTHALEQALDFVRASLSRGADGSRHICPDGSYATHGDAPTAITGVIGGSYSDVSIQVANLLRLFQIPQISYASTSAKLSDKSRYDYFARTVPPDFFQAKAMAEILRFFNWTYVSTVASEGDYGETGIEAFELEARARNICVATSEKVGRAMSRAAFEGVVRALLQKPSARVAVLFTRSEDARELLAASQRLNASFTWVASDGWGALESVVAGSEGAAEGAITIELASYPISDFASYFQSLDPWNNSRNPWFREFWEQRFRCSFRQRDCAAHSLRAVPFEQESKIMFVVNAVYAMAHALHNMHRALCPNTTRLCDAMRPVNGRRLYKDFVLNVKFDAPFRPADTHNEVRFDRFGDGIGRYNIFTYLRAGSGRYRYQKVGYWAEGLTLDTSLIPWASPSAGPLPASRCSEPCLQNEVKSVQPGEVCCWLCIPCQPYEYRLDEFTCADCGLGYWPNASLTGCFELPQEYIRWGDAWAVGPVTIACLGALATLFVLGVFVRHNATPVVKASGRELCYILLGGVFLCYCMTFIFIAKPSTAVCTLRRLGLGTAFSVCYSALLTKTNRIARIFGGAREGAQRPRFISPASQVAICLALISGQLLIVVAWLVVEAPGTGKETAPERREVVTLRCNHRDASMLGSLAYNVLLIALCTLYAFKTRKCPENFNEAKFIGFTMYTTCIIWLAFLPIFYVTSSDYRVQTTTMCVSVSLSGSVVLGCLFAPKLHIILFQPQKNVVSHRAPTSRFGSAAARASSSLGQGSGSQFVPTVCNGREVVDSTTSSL
Protocol Text: mGluR2 cAMP assay
Format: cell-based
Run Conditions: clonally expressed human mGluR2 in HEK293; 1 μM forskolin, 1 μM LY-341495, 30 min; CISBIO cAMP kit; read-out: EC50 (nM), activity in mGluR2 cAMP assay
Recorded Metric: log10(EC50) (log10 of the value in nM)
Remember, log10 of EC50, in nM.

[
  {
    "Compound": "FC(F)(F)c1c(OCc2ccccc2)ccn2c(CC3CC3)nnc12 (racemic)",
    "log10(EC50)": 1.40
  },
  {
    "Compound": "COc1cccc(F)c1[C@H]1C[C@@H]1COc1ccn2c(CC3CC3)nnc2c1C(F)(F)F (racemic) [Example 32]",
    "log10(EC50)": -0.52
  },
  {
    "Compound": "Fc1ccccc1COc1ccn2c(CC3CC3)nnc2c1Cl",
    "log10(EC50)": 1.83
  },
  {
    "Compound": "Clc1ccc(COc2ccn3c(CC4CC4)nnc3c2Cl)cc1Cl",
    "log10(EC50)": 1.51
  },
  {
    "Compound": "Fc1cccc(F)c1CCOc1ccn2c(CC3CC3)nnc2c1C(F)(F)F",
    "log10(EC50)": 0.18
  }
]

In: Form field - read-out: log10(EC50); system: human mGluR2 (Homo sapiens, UniProt Q14416); submitted item: "CC(C)(COc1ccn2c(CC3CC3)nnc2c1C(F)(F)F)Oc1ccc(Cl)cc1"
Out: 1.11

In: Form field - read-out: log10(EC50); system: human mGluR2 (Homo sapiens, UniProt Q14416); submitted item: CO[C@]1(c2ccc(F)cc2)CC[C@H](Oc2ccn3c(C4CC4(F)F)nnc3c2C(F)(F)F)CC1 (mixture of isomers) [Example 86]
Out: 0.84

In: Form field - read-out: log10(EC50); system: human mGluR2 (Homo sapiens, UniProt Q14416); submitted item: "CC(C)(COc1ccn2c(CC3CC3)nnc2c1C(F)(F)F)Oc1ccc(F)cc1"
Out: 1.04

In: Form field - read-out: log10(EC50); system: human mGluR2 (Homo sapiens, UniProt Q14416); submitted item: "FC(F)(F)COCc1nnc2c(C(F)(F)F)c(O[C@H]3CC[C@H](c4ccccc4)CC3)ccn12"
Out: -0.22

In: Form field - read-out: log10(EC50); system: human mGluR2 (Homo sapiens, UniProt Q14416); submitted item: "CO[C@]1(c2ccc(F)c(F)c2)CC[C@H](Oc2ccn3c(CC4CC4)nnc3c2C(F)(F)F)CC1"
Out: -0.15

In: Form field - read-out: log10(EC50); system: human mGluR2 (Homo sapiens, UniProt Q14416); submitted item: COc1ccccc1[C@H]1C[C@@H]1COc1ccn2c(CC3CC3)nnc2c1C(F)(F)F (racemic) [Example 37]
Out: -0.70

In: Form field - read-out: log10(EC50); system: human mGluR2 (Homo sapiens, UniProt Q14416); submitted item: "CC(C)(COc1ccn2c(CC(F)(F)F)nnc2c1C(F)(F)F)Oc1ccc(F)cc1"
Out: 1.26

In: Form field - read-out: log10(EC50); system: human mGluR2 (Homo sapiens, UniProt Q14416); submitted item: "FC(F)(F)Oc1ccc(Cl)cc1COc1ccn2c(CC3CC3)nnc2c1Cl"
Out: 1.34

In: Form field - read-out: log10(EC50); system: human mGluR2 (Homo sapiens, UniProt Q14416); submitted item: Fc1cccc(Cl)c1[C@H]1C[C@@H]1COc1ccn2c(CC3CC3)nnc2c1C(F)(F)F (racemic)
Out: -0.30

In: Form field - read-out: log10(EC50); system: human mGluR2 (Homo sapiens, UniProt Q14416); submitted item: FC(F)(F)Oc1ccccc1[C@H]1C[C@@H]1COc1ccn2c(CC3CC3)nnc2c1C(F)(F)F (single isomer, unassigned) [Example 41]
Out: 0.34

In: Form field - read-out: log10(EC50); system: human mGluR2 (Homo sapiens, UniProt Q14416); submitted item: COc1cccc(F)c1[C@H]1C[C@@H]1COc1ccn2c(CC3CC3)nnc2c1C(F)(F)F (single isomer, unassigned) [Example 35]
Out: -0.70
